Test system: giant foxtail (Setaria faberii)
protocol.description: Test A postemergence
Assay type: in vivo
experimental.conditions: 500 g ai/ha, postemergence; 0 to 100 scale, 0 no effect, 100 complete control
reported.metric: Plant response rating, Foxtail, Giant
Please give only the number in your answer, with no unit.

Query: // returns reported Plant response rating, Foxtail, Giant for input CN1CC(c2ccc(F)cc2)C(C(=O)Nc2ccccc2F)C1=O (centres unmarked)
Response: 90

Query: Return reported Plant response rating, Foxtail, Giant; argument: Cc1cccc(NC(=O)C2C(=O)NCC2c2ccc(F)c(F)c2)c1F (centres unmarked)
Response: 80

Query: Bench note: what Plant response rating, Foxtail, Giant did O=C1NCC(c2ccc(-c3ccccc3)cc2)C1C(=O)Nc1ccccc1F (racemic) show?
Response: 0

Query: Name the reported Plant response rating, Foxtail, Giant value associated with the compound O=C1NCC(c2cccc(O)c2)C1C(=O)Nc1cccc(F)c1F (racemic)
Response: 0

Query: May I ask what Plant response rating, Foxtail, Giant has been recorded for O=C(Nc1ccccc1F)C1C(=O)N(c2ccccc2)CC1c1cccc(C(F)(F)F)c1 (centres unmarked) ?
Response: 0

Query: Entry under review: CN1CC(c2ccc(F)cc2)C(C(=O)Nc2ccccc2S(C)(=O)=O)C1=O (centres unmarked) . Reported Plant response rating, Foxtail, Giant?
Response: 90

Query: Consider the compound CN1CC(c2ccc3c(c2)OC(F)(F)O3)C(C(=O)Nc2ccc(F)cc2F)C1=O (centres unmarked) and give its measured Plant response rating, Foxtail, Giant.
Response: 80

Query: Requested read-out: Plant response rating, Foxtail, Giant. Entry: O=C1NCC(c2cccc(OC(F)F)c2)C1C(=O)Nc1ccc(F)cc1F (centres unmarked)
Response: 90

Query: Give its Plant response rating, Foxtail, Giant value. Item: O=C1NCC(c2ccc(F)c(F)c2)C1C(=O)Nc1ccc(Cl)cc1F (centres unmarked)
Response: 40

Query: Plant response rating, Foxtail, Giant for COc1cccc(NC(=O)C2C(=O)NCC2c2ccc(F)c(F)c2)c1F (centres unmarked) ?
Response: 0

Query: Reported Plant response rating, Foxtail, Giant for CN1CC(c2cccc(OC(F)(F)C(F)F)c2)C(C(=O)Nc2ccccc2C(F)(F)F)C1=O (centres unmarked) : what is it?
Response: 90

Query: Return reported Plant response rating, Foxtail, Giant; argument: O=C1NCC(c2cccc(OC(F)F)c2)C1C(=O)Nc1cccc(OC(F)F)c1 (centres unmarked)
Response: 60

Query: Entry Cn1nccc1NC(=O)C1C(=O)NCC1c1ccc(F)c(F)c1 (racemic) has what Plant response rating, Foxtail, Giant?
Response: 0

Query: Which Plant response rating, Foxtail, Giant value is on record for O=C1NCC(c2ccc(F)cc2F)C1C(=O)Nc1cccc(F)c1F (centres unmarked) ?
Response: 80

----------
Task for the reader: assign each of the following molecules its reported pest or weed control at 31 g/ha.
Tested on: blackgrass (Alopecurus myosuroides)
protocol.description: Test A postemergence
Format: in vivo
experimental.conditions: Alopecurus myosuroides, post-emergence, 240 h, Postemergence, 31 g ai/ha; 0 is no effect, 100 is complete control; read-out: Blackgrass plant response rating (0 to 100 scale)
Please give a number only; it is taken to be in %.

Query: Fill in the blank: the reported pest or weed control at 31 g/ha of CN1C[C@H](c2cccc(C#N)c2)[C@@H](C(=O)Nc2ccc(F)c(F)c2F)C1=O is ____.
Response: 0

Query: Recorded pest or weed control at 31 g/ha of CN1C[C@H](c2ccc(C(F)(F)F)cc2)[C@@H](C(=O)Nc2ccc(F)nc2F)C1=O , please.
Response: 30

Query: Which pest or weed control at 31 g/ha is reported for this molecule? Cc1cc([C@H]2CN(C)C(=O)[C@@H]2C(=O)Nc2cccc(F)c2F)no1
Response: 0

Query: Given the molecule CN1C[C@H](c2csc3c2CCCC3)[C@@H](C(=O)Nc2cccc(F)c2F)C1=O , what is its reported pest or weed control at 31 g/ha?
Response: 0

Query: State the recorded pest or weed control at 31 g/ha for this entry: CN1C[C@H](c2ccc(C(F)(F)F)cc2)[C@@H](C(=O)Nc2cccc(F)n2)C1=O
Response: 30

----------
Tested on: barnyardgrass (Echinochloa crus-galli)
protocol.description: Test G Pre-Emergence Protocol
Assay type: in vivo
experimental.conditions: Echinochloa crus-galli, pre-emergence, 312 h, 250 g ai/ha, evaluated after 13 days, read-out: Barnyardgrass damage rating (100=total damage to plant; 0=no damage to plant)
reported.metric: pest or weed control at 250 g/ha (%)
Return type: number; implicit unit %.

Query: Need pest or weed control at 250 g/ha, item CN1C[C@@H](c2ccc(C(F)(F)F)cc2)[C@H](C(=O)Nc2cc[nH]n2)C1=O (racemic) [Compound 1533]
Response: 0

Query: Please give the measured pest or weed control at 250 g/ha for this compound: CN1CCC(NC(=O)[C@H]2C(=O)N(C)C[C@@H]2c2ccc(C(F)(F)F)cc2)C1=O (mixture of isomers) [Compound 1673]
Response: 0

Query: Requested field: pest or weed control at 250 g/ha. Item: COc1c(Cl)ccc([C@H]2CNC(=O)[C@@H]2C(=O)Nc2cccc(F)n2)c1F (racemic) [Compound 1478]
Response: 30

Query: Which pest or weed control at 250 g/ha value is on record for CCOc1cc(C2CN(C)C(=O)C2C(=O)Nc2cccc(F)c2F)cc(C(F)(F)F)c1 (stereo not drawn) [Compound 1696] ?
Response: 80

Query: So what's the measured pest or weed control at 250 g/ha for this one? CN1C[C@H](c2cccc(C(C)(C)C#N)c2)[C@@H](C(=O)Nc2ccccc2F)C1=O (racemic) [Compound 1407]
Response: 90

Query: Which pest or weed control at 250 g/ha value is on record for CN1C[C@H](c2ccc(C(F)(F)F)cc2)[C@@H](C(=O)Nc2cc(C#N)ccn2)C1=O (racemic) [Compound 1734] ?
Response: 0

Query: Quick check: pest or weed control at 250 g/ha of Cc1cc(C2CN(C)C(=O)C2C(=O)Nc2cccc(F)c2F)cc(C(F)(F)F)c1 (stereo not drawn) [Compound 1723] ?
Response: 90

Query: Need pest or weed control at 250 g/ha, item Cc1cscc1NC(=O)[C@@H]1C(=O)N(C)C[C@H]1c1ccc(C(F)(F)F)cc1 (racemic) [Compound 1526]
Response: 80

Query: Any idea what its pest or weed control at 250 g/ha is? The compound is CN1C[C@H](c2cccc(C(F)(F)F)c2)[C@@H](C(=O)Nc2cccc(F)n2)C1=O (racemic) [Compound 1671]
Response: 90

Query: For Cc1ncsc1NC(=O)[C@@H]1C(=O)N(C)C[C@H]1c1ccc(C(F)(F)F)cc1 (racemic) [Compound 1635] , what is its reported pest or weed control at 250 g/ha?
Response: 0

Query: I am curious: what pest or weed control at 250 g/ha value has been reported for CC(C)c1cc([C@H]2CN(C)C(=O)[C@@H]2C(=O)Nc2cccc(F)c2F)cnn1 (racemic) [Compound 1488] ?
Response: 0

Query: Give the measured pest or weed control at 250 g/ha of CN1C[C@@H](c2ccc(C(F)(F)F)cc2)[C@H](C(=O)Nc2cscn2)C1=O (racemic) [Compound 1659] .
Response: 0

Query: Value lookup for pest or weed control at 250 g/ha; key = CN1C[C@@H](c2ccc(C(F)(F)F)cc2)[C@H](C(=O)Nc2ccno2)C1=O (racemic) [Compound 1513]
Response: 0

Query: // query pest or weed control at 250 g/ha value for entry COCCOc1cc([C@@H]2CN(C)C(=O)[C@H]2C(=O)Nc2cccc(F)c2C)ccc1C (racemic) [Compound 1790]
Response: 90

Query: If you can, please state the reported pest or weed control at 250 g/ha value of Cc1cccc(NC(=O)[C@H]2C(=O)N(C)C[C@@H]2c2ccc(C(F)(F)F)cc2)[n+]1[O-] (racemic) [Compound 1805] .
Response: 0

----------
Tested on: barnyardgrass (Echinochloa crus-galli)
protocol.description: Test A postemergence
Type: in vivo
experimental.conditions: Echinochloa crus-galli, post-emergence, 240 h, Postemergence, 31 g ai/ha; 0 is no effect, 100 is complete control; read-out: Barnyardgrass plant response rating (0 to 100 scale)
Text: […]
What pest or weed control at 31 g/ha was measured for each of the following?

Query: # get_value(readout='pest or weed control at 31 g/ha', item= Cc1ccncc1NC(=O)[C@H]1C(=O)N(C)C[C@@H]1c1ccc2c(c1)OC(F)(F)O2 )
Response: 0%

Query: Which pest or weed control at 31 g/ha is listed for COc1c([C@H]2CN(C)C(=O)[C@@H]2C(=O)Nc2ccccc2F)cccc1C(F)(F)F ?
Response: 70%

Query: Look up pest or weed control at 31 g/ha for this molecule: CN1C[C@H](c2cccc(C#N)c2)[C@@H](C(=O)Nc2ccccc2F)C1=O
Response: 60%

Query: Value lookup for pest or weed control at 31 g/ha; key = CN1C[C@H](c2cccc(C(F)(F)F)c2)[C@@H](C(=O)Nc2ccccc2-n2cccn2)C1=O
Response: 0%
